Molecular target: ASK1 T838 auto phosphorylation in HEK-293T cells (Homo sapiens (Human))
Assay: ASK1 (AUTO PHOS T838) assay, MSD format
Type: cell-based
Settings: HEK 293T cells transfected with ASK1-V5 full length plasmid, compounds 1 hr at 37° C.; read-out: IC50
pIC50: −log10 of the molar value.
READOUT_NAME: pIC50

>>> assay_value("C[C@H]1CCCOc2cc(F)c(-c3cnn(C)c3)cc2C(=O)Nc2cccc(n2)-c2nncn21")
"> 6.00"

QUERY: Check the records and state pIC50 for O=C1Nc2cccc(n2)-c2nncn2CCCCOc2ccc(-c3cccnc3)cc21
RESULT: > 6.00

QUERY: Identify measured pIC50 associated with C[C@@H]1CCOc2cc(F)c(Br)cc2C(=O)Nc2cccc(n2)-c2nncn2C1
RESULT: 5.00 to 6.00

QUERY: Specify pIC50 for O=C1Nc2cccc(n2)-c2nncn2C/C=C/COc2c(Br)cccc21 and stop.
RESULT: < 5.00

QUERY: Tell us which pIC50 value is on record for CN1CCC(c2ccc3c(c2)OCCCCn2cnnc2-c2cccc(n2)NC3=O)CC1
RESULT: > 6.00

QUERY: Kindly indicate its recorded pIC50. Item: C[C@@H]1CCCn2cnnc2-c2cccc(n2)NC(=O)c2cc(C#N)ccc2O1
RESULT: > 6.00

QUERY: Give me measured pIC50, please, for this compound: C[C@@H]1CCCOc2ccc(F)cc2C(=O)Nc2cccc(n2)-c2nncn21
RESULT: 5.00 to 6.00

QUERY: Specify reported pIC50 for the compound shown: O=C1Nc2cccc(n2)-c2nncn2C/C=C\COc2c1cccc2C(F)(F)F
RESULT: < 5.00

QUERY: For the compound CN1CCn2ncc(-c3cc4c(cc3F)OCC/C=C\Cn3cnnc3-c3cccc(n3)NC4=O)c2C1 , give its measured pIC50 value.
RESULT: > 6.00

QUERY: Look up pIC50 of N#Cc1ccc2c(c1)C(=O)Nc1cccc(n1)-c1nncn1CCCCO2 and report it.
RESULT: > 6.00

QUERY: Quote pIC50 reported for C[C@@H]1CN(C)CCN1c1ccc2c(c1)OCCCCn1cnnc1-c1cccc(n1)NC2=O please.
RESULT: > 6.00

QUERY: # return recorded pIC50 for entry Cc1cn(-c2ccc3c(c2)C(=O)Nc2cccc(n2)-c2nncn2[C@@H](C)CCCO3)cn1
RESULT: > 6.00

QUERY: Please give the documented pIC50 of O=C1Nc2cccc(n2)-c2nncn2CCCCOc2ccc(-n3cccn3)cc21
RESULT: > 6.00

QUERY: Hello, please tell me recorded pIC50 for this one: Cc1c(-c2cc3c(cc2F)OCCCCn2cnnc2-c2cccc(n2)NC3=O)cnn1C
RESULT: > 6.00

QUERY: Give a short answer stating reported pIC50 for C[C@@H]1CCCOc2cc(N3CCN(C)CC3)ccc2C(=O)Nc2cccc(n2)-c2nncn21 .
RESULT: 5.00 to 6.00

QUERY: Give reported pIC50 value for O=C1Nc2cccc(n2)-c2nncn2CCCCOc2cc(F)c(-c3ccnnc3)cc21
RESULT: > 6.00

QUERY: Return pIC50 for the following compound: C[C@H]1CCCOc2ccc(F)cc2C(=O)Nc2cccc(n2)-c2nncn21
RESULT: > 6.00

----------
Target: ASK1 T838 auto phosphorylation in HEK-293T cells (Homo sapiens (Human))
Test: ASK1 (AUTO PHOS T838) assay, MSD format
Assay type: cell-based
Conditions: HEK 293T cells transfected with ASK1-V5 full length plasmid, compounds 1 hr at 37° C.; read-out: IC50
pIC50: −log10 of the molar value.
In this section, each of the molecules is paired with its reported pIC50.

// worked examples, pIC50 included
>>> assay_value("COCCNc1cc2c(cc1F)C(=O)Nc1cccc(n1)-c1nncn1CCCCO2")
"> 6.00"
>>> assay_value("C[C@H]1CCCOc2cc(F)c(-c3ccncc3)cc2C(=O)Nc2cccc(n2)-c2nncn21")
"> 6.00"
>>> assay_value("C[C@@H]1CCCn2cnnc2-c2cccc(n2)NC(=O)c2cc(N3CCOCC3)ccc2O1")
"> 6.00"
>>> assay_value("C[C@@H]1CCCn2cnnc2-c2cccc(n2)NC(=O)c2cc(Br)ccc2O1")
"5.00 to 6.00"
>>> assay_value("COCCOc1cc2c(cc1F)OCCC[C@H](C)n1cnnc1-c1cccc(n1)NC2=O")
"> 6.00"

QUERY: Item O=C1Nc2cccc(n2)-c2nncn2C/C=C/COc2cc(C(F)(F)F)ccc21 : provide pIC50
RESULT: 5.00 to 6.00

QUERY: Supply pIC50 value. Item: C[C@H]1CCCOc2cc(F)c(N3CC4CC(C3)O4)cc2C(=O)Nc2cccc(n2)-c2nncn21
RESULT: > 6.00

QUERY: Give the reported pIC50 for this molecule. Cc1cn(-c2ccc3c(c2)C(=O)Nc2cccc(n2)-c2nncn2CCC[C@@H](C)O3)cn1
RESULT: > 6.00

----------
Reported IC50 values for a set of compounds
Target: GST-hASK1 (Homo sapiens (Human), UniProt Q99683)
Sequence (Q99683 649-946): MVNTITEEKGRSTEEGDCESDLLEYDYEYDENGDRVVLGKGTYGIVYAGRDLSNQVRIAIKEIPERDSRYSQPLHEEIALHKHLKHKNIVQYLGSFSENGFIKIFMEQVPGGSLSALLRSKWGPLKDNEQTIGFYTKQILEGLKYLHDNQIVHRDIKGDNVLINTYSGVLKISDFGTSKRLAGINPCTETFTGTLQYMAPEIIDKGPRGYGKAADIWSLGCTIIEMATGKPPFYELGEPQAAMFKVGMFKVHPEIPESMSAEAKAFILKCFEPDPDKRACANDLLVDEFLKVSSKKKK
Experiment: ASK1 TR-FRET assay
Format: biochemical
Conditions: 5 nM GST-hASK1, 100 μM ATP, 2 μM STK Substrate 3

Solved entries:
>>> assay_value("O=C1Nc2cccc(n2)-c2nncn2CCCCOc2ccc(C3=CCOC3)cc21")
"< 100 nM"
>>> assay_value("O=C1Nc2cccc(n2)-c2nncn2C/C=C\\COc2ccc(N3CCOCC3)cc21")
"< 100 nM"
>>> assay_value("Cc1nn(C)cc1-c1ccc2c(c1)C(=O)Nc1cccc(n1)-c1nncn1CCCCO2")
"< 100 nM"
>>> assay_value("O=C1Nc2cccc(n2)-c2nncn2CCCOc2ccc(Br)cc21")
"1000 to 10000 nM"

QUERY: Retrieve IC50 measured for C=Cc1ccc2c(c1)C(=O)Nc1cccc(n1)-c1nncn1CCCCO2 and print it.
RESULT: < 100 nM

QUERY: Indicate its recorded IC50; the compound in question is Cn1cc(-c2ccc3c(c2)C(=O)Nc2cccc(n2)-c2nncn2CCCCO3)nn1
RESULT: < 100 nM

----------
Biological target: ASK1 T838 auto phosphorylation in HEK-293T cells (Homo sapiens (Human), UniProt Q99683)
Sequence (Q99683 whole entry): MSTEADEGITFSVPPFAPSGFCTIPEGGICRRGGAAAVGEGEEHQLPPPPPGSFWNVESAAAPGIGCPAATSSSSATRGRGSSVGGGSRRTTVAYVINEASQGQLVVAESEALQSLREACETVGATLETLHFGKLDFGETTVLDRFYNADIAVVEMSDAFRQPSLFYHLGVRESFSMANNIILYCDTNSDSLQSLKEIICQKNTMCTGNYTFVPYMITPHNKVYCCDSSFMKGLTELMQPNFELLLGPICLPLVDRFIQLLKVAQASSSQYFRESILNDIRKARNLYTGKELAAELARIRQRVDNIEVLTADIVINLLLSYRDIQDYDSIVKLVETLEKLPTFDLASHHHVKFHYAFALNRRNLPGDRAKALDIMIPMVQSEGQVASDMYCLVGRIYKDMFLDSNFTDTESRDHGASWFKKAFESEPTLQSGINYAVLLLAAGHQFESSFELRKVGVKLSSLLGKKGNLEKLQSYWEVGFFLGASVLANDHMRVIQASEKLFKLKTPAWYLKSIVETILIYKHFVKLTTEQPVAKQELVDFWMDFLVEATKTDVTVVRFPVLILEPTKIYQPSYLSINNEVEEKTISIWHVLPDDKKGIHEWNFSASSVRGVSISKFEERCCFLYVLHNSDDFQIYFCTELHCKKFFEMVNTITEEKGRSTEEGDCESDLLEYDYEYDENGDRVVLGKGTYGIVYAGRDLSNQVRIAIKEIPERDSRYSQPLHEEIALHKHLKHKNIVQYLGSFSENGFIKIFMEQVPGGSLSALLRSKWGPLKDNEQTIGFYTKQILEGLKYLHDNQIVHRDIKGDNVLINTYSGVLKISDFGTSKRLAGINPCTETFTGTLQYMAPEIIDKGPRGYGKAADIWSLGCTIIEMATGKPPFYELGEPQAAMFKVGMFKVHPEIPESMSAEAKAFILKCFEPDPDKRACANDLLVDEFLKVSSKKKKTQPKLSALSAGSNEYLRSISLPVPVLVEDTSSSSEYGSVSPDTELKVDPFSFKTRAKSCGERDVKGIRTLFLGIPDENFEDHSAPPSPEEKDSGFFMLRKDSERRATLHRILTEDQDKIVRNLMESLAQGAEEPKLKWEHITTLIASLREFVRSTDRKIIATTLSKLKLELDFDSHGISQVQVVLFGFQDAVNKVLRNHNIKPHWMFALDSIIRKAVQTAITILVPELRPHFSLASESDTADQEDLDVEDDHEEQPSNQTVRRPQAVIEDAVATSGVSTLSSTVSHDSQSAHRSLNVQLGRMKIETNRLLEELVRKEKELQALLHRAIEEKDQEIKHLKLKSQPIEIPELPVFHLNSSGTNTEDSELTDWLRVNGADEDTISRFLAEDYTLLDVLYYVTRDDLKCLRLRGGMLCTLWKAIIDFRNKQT
Experiment: ASK1 (AUTO PHOS T838) assay, MSD format
Format: cell-based
Conditions: HEK 293T cells transfected with ASK1-V5 full length plasmid, compounds 1 hr at 37° C.; read-out: IC50
pIC50: −log10 of the molar value.
READOUT_NAME: pIC50

>>> assay_value("O=C1Nc2cccc(n2)-c2nncn2C/C=C\\CCOc2cc(F)c(Br)cc21")
"5.00 to 6.00"
>>> assay_value("Cc1ncn(-c2ccc3c(c2)C(=O)Nc2cccc(n2)-c2nncn2CCCCO3)c1C")
"> 6.00"
>>> assay_value("C[C@H]1CCCOc2cc(F)c(-c3ccncc3F)cc2C(=O)Nc2cccc(n2)-c2nncn21")
"> 6.00"
>>> assay_value("CN1CCn2ncc(-c3cc4c(cc3F)OCCCCn3cnnc3-c3cccc(n3)NC4=O)c2C1")
"> 6.00"
>>> assay_value("O=C1Nc2cccc(n2)-c2nncn2C/C=C\\COc2cc(C(F)(F)F)ccc21")
"5.00 to 6.00"
>>> assay_value("C[C@H]1CCCOc2cc(F)c(-c3cncnc3)cc2C(=O)Nc2cccc(n2)-c2nncn21")
"> 6.00"

QUERY: Specify pIC50 for C[C@H]1CCCn2cnnc2-c2cccc(n2)NC(=O)c2cc(C#N)ccc2O1 and stop.
RESULT: > 6.00

QUERY: Give pIC50 for the following molecule: Cc1ccc(-c2cc3c(cc2F)OCCCCn2cnnc2-c2cccc(n2)NC3=O)cn1
RESULT: > 6.00

----------
Biological target: ASK1 T838 auto phosphorylation in HEK-293T cells (Homo sapiens (Human))
Assay: ASK1 (AUTO PHOS T838) assay, MSD format
Assay type: cell-based
Conditions: HEK 293T cells transfected with ASK1-V5 full length plasmid, compounds 1 hr at 37° C.; read-out: IC50
Entries and their IC50

>>> assay_value("O=C1Nc2cccc(n2)-c2nncn2CCCCOc2ccc(N3C4COCC3C4)cc21")
"1000 to 10000 nM"
>>> assay_value("O=C1Nc2cccc(n2)-c2nncn2CCCCOc2cc(F)c(C3=CCOCC3)cc21")
"< 1000 nM"
>>> assay_value("C[C@H]1CCCOc2cc(F)c(C3=CCOCC3)cc2C(=O)Nc2cccc(n2)-c2nncn21")
"< 1000 nM"

QUERY: Report IC50 on ASK1 T838 auto phosphorylation in HEK-293T cells (Homo sapiens (Human)) for this entry: O=C1Nc2cccc(n2)-c2nncn2CCCCOc2c(Br)cccc21
RESULT: 1000 to 10000 nM
